Reference source for all entries: patent US20100143349A1

- System name: T1, hRAGE-Fc (human, UniProt Q15109 23-342, biotin label in the selections and HTRF assays)
- T1 construct: extracellular domain; also called biotin labeled hRAGE-Fc; Biotin-labeled RAGE-Fc; not shown: Fc part
- T1 sequence (Q15109 23-342): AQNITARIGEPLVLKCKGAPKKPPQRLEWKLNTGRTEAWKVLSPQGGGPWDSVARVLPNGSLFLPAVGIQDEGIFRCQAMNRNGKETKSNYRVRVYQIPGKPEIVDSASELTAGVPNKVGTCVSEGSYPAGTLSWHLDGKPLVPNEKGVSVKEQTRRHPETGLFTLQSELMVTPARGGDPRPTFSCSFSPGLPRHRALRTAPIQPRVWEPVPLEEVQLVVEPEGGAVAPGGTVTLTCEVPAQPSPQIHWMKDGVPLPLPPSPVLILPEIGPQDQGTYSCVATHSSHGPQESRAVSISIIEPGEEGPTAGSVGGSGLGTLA
- Protocol summary: HTRF competition, scFv vs labelled parental XT-M4 (competitor) on biotin hRAGE-Fc
Experimental readout: IC50 (nM)
Express your answer in nM, writing the number without its unit.

Recorded result, 3A6 scFv (scFv) scFv: DIQMTQSPSSLSASVGDRVTITCRASQDVGIYVNWFQQKPGKAPRRLIYRATNLADGVPSRFSGSRSGTDFTLTISSLQPEDFATYYCLEFDEHPLTFGGGTKVEIKDGGGSGGGGSGGGGSSEVQLVESGGGLVQPGGSLRLSCAASGFTFNNYWMTWVRQAPGKGLEWVASIDNSGDNTYYPDSVKDRFTISRDNAKNSLYLQMNSLRAEDTAVYYCARGGDILVSLDVWGQGTLVTVSS , IC50: 0.474

Recorded result, 3D6 scFv (scFv) scFv: DIQMTQSPSSLSASVGDRVTITCRASQDVGIYVNWFQQKPGKAPRRLIYRATNLADGVPSRFSGSRSGTDFTLTISSLQPEDFATYYCLEFDEHPLTFGGGTKVEIKDGGGSGGGGSGGGGSSEVQLVESGGGLVQPGGSLRLSCAASGFTFNNYWMTWVRQAPGKGLEWVASIDNSGDNTYYPDSVKDRFTISRDNAKNSLYLQMNSLRAEDTAVYYCARGGDIRVMLDLWGQGTLVTVSS , IC50: 2.92

Recorded result, 3B9 scFv (scFv) scFv: DIQMTQSPSSLSASVGDRVTITCRASQDVGIYVNWFQQKPGKAPRRLIYRATNLADGVPSRFSGSRSGTDFTLTISSLQPEDFATYYCLQFDNHPLTFGGGTKVEIKDGGGSGGGGSGGGGSSEVQLVESGGGLVQPGGSLRLSCAASGFTFNNYWMTWVRQAPGKGLEWVASIDNSGDNTYYPDSVKDRFTISRDNAKNSLYLQMNSLRAEDTAVYYCARGGDITTGFDYWGQGTLVTVSS , IC50: 10.6
